Biological target: T1, human PD-L1 on stably transfected cell line HEK293T/hPD-L1 (human, UniProt Q9NZQ7 19-290)
T1 construct: whole, on cells
T1 sequence (Q9NZQ7 19-290): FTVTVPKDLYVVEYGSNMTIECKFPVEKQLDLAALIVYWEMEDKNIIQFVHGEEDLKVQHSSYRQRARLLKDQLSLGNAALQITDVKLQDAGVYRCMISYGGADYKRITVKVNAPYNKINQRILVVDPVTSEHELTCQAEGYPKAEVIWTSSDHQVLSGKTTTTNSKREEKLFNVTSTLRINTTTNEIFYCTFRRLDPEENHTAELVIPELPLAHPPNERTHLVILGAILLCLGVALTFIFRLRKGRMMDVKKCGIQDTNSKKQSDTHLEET
Assay: flow cytometry on HEK293T/hPD-L1 cells, 10 ug/ml nanobody, anti-human IgG Fc (FITC)
Method: The stably transfected cell line HEK293T/hPD-L1 was digested and centrifuged, and the supernatant was removed. The cells were washed once with PBS and the cell density was adjusted to 2.5×10⁶ cells/mL. 100 μL of cell suspension was added to each cell sample, i.e., 2.5×10⁵ cells/sample. […] The cells were washed twice with PBS, transferred to a flow tube; and detected on a flow cytometer to obtain the binding activity of the candidate nanobody with human PD-L1, as shown in FIG. 1.
RECORDED METRIC: binding result

BINDER	RECORDED METRIC	MEASURED
h_Nb1 (expressed from pFUSE-hIgG1-Fc) (Fc fusion, Candidates were cloned into pFUSE-mIgG2b-Fc and pFUSE-hIgG1-Fc; not shown: human IgG1 Fc as encoded by the pFUSE-hIgG1-Fc vector) DVQLQESGGGLVQPGGSLRLSCAASGFTFSSYAMSWVRQAPGKGLEWVSDINSGGDNTDYADSVKGRFTISRDNAKNTLYLQMNSLKPEDTAVYYCARGPKLCFSSWGQGTQVTVSS	binding result	binds
h_Nb6 (expressed from pFUSE-hIgG1-Fc) (Fc fusion, not shown: human IgG1 Fc as encoded by the pFUSE-hIgG1-Fc vector) DVQLQESGGGLAQPGGSLRLSCAASGFTFSSYAMSWARQAPGKGLEWVAGIYRGGSDTYYADSVKGRFTISRDNTKNTLYLQMNSLKPEDTALYYCIQGWGLGYANYDYWGQGTQVTVSS	binding result	binds
